# study-target: equine FcRn (large alpha subunit p51) / equine beta-2-microglobulin complex, biotinylated (equine) (UniProt P30441)
# experimental-protocol: SPR (Biacore), pH 6
measure: Kd (nM)
Give bare numbers, in nM.

Exam item: In one line, give reported Kd of the entry equine IgG1 Q311T (antibody, part only; not given: variable domains, not shown: another chain or arm of the molecule) constant: ASTTAPKVFALAPGCGTTSDSTVALGCLVSGYFPEPVKVSWNSGSLTSGVHTFPSVLQSSGFYSLSSMVTVPASTWTSETYICNVVHAASNFKVDKRIEPIPDNHQKVCDMSKCPKCPAPELLGGPSVFIFPPNPKDTLMITRTPEVTCVVVDVSQENPDVKFNWYMDGVEVRTATTRPKEEQFNSTYRVVSVLRIQHTDWLSGKEFKCKVNNQALPQPIERTITKTKGRSQEPQVYVLAPHPDELSKSKVSVTCLVKDFYPPEINIEWQSNGQPELETKYSTTQAQQDSDGSYFLYSKLSVDRNRWQQGTTFTCGVMHEALHNHYTQKNVSKNPGK .
Marked response: 17.4
